Test system: Candida albicans
Test: In vitro inhibitory activity against Candida albicans
Format: functional, organism-based
quantity.kind: IC50 (µg/mL)
Answers are plain numbers, in µg/mL.

Solved entries:
compound	target.desc	measurement.units	IC50
C=C1C[C@H](C(=O)O)[C@@H](N)C1.Cl	Candida albicans	µg/mL	128
C[C@]1(N)CCC[C@H]1C(=O)O.Cl	Candida albicans	µg/mL	64
C=CC1C[C@H](N)[C@H](C(=O)O)C1.Cl (stereo not given in full)	Candida albicans	µg/mL	128
C=C1C[C@H](NCC)[C@H](C(=O)O)C1	Candida albicans	µg/mL	128
Cl.N[C@H]1CC(O)C[C@H]1C(=O)O (stereo not given in full)	Candida albicans	µg/mL	128
Cl.N[C@H]1CC=CC[C@H]1C(=O)O	Candida albicans	µg/mL	128

For each of the items listed, what is its IC50?
1. CC1CC[C@H](N)[C@@H]1C(=O)O.Cl (single isomer, unassigned; Diastereomer B)
2. N[C@H]1CSC[C@H]1C(=O)O
3. CC1CC[C@@H](C(=O)O)[C@H]1N.Cl (stereo not given in full)
4. CC1(C)C[C@H](N)[C@H](C(=O)O)C1.Cl
5. C=C1C[C@H](N)[C@H](c2nnn[nH]2)C1.Cl
6. C=C1C[C@H](N)[C@H](C(=O)O)C1C.Cl (stereo not given in full)

-- reply
1. 16
2. 64
3. 128
4. 256
5. 128
6. 128

====

Test system: Candida albicans
Test: In vitro inhibitory activity against Candida albicans
Assay type: functional, organism-based
So I've got a bunch of compounds here, and I need their IC50 values.
Answers are plain numbers, in µg/mL.

compound	target.desc	quantity.kind	data.value
Cl.N[C@H]1CCCC[C@H]1C(=O)O	Candida albicans	IC50	128

Give IC50 for each of the items listed below.
1. Cl.N[C@H]1CC(F)(F)C[C@H]1C(=O)O
2. Cl.N[C@H]1C=CCO[C@H]1C(=O)O
3. C=C=C1C[C@H](N)[C@H](C(=O)O)C1.Cl
4. C=C1C[C@@H](N)[C@@H](C(=O)O)C1.Cl
5. C=C1C[C@@H](C(=O)O)[C@@H](N)C1C.Cl (mixture of isomers)
6. Cl.Cl.NC1C[C@H](N)[C@H](C(=O)O)C1 (mixture of isomers)

-- reply
[128, 64, 128, 128, 64, 64]

Okay, here is my list. What is IC50 for each of these?
1. Cl.N[C@H]1CC[C@H]1C(=O)O
2. CCCC/C=C1/C[C@H](N)[C@H](C(=O)O)C1.Cl

-- reply
1. 128
2. 128

====

Tested on: Candida albicans
Assay: In vitro inhibitory activity against Candida albicans
Format: functional, organism-based
quantity.kind: IC50

Sample records with IC50:
compound	IC50
Cl.N[C@H]1CCC[C@H]1S(=O)(=O)O	> 256 µg/mL
C=C1C[C@@H](C(=O)O)[C@H]1N.Cl	> 256 µg/mL
C=C1C[C@H](N)[C@@H]1C(=O)O.Cl	> 256 µg/mL

Look at each compound and report its IC50.
1. CCCC(N)CC(=O)O.Cl (centres undefined)
2. Cl.N[C@H]1CCS[C@H]1C(=O)O
3. Cl.N[C@H]1CCC[C@H]1P(=O)(O)O

-- reply
> 256 µg/mL
> 256 µg/mL
> 256 µg/mL

Report IC50 for every entry below.
1. C=C1C[C@@H](CO)[C@@H](N)C1
2. Cl.Cl.N[C@H]1CCN[C@H]1C(=O)O
3. C=C1CC[C@H](N)[C@H](C(=O)O)C1.Cl

-- reply
["> 256 µg/mL", "> 256 µg/mL", "> 256 µg/mL"]
